B1: F1*; the commonest letter at each place (parent)
chain: GAGACCGCAACTGAAAAGTTGTTATCACTTGTCGTAAGACACTTTGGATGGGTTGAAGTTCTGCACGTAGAAGCAAAAGGC

Variants of: B1
Assay: fraction ligated after 30 min (ligated reads / total reads); higher = more ligase activity
Settings: with F1*sub RNA substrate (template-directed ligation), 42 °C
experimental_readout: fraction ligated
Give the figure only, with no unit attached.

Task item: Entry C40G : reported fraction ligated = ?
Reply: 0.816

Task item: Next record, please: A36T A57C
Reply: 0.823

Task item: Next record, please: T35A G50T
Reply: 0.792

Task item: Next record, please: A27C G55A
Reply: 0.805

Task item: Next record, please: C28A G55T
Reply: 0.8

Task item: Next record, please: T32A G55A
Reply: 0.817

Task item: Next record, please: T25A A39G
Reply: 0.751

Task item: Next record, please: T23C G47T
Reply: 0.0952

Task item: Next record, please: T35C T43A
Reply: 0.839

Task item: Next record, please: T25A G50A
Reply: 0.225

Task item: Next record, please: C26A C28G
Reply: 0.395

Task item: Next record, please: A36C A39T
Reply: 0.802

Task item: Next record, please: T43G G46C
Reply: 0.783

Task item: Next record, please: C26G G50C
Reply: 0.0252

Task item: Next record, please: T32A G46A
Reply: 0.81

Task item: Next record, please: G31A A41C
Reply: 0.74

Task item: Next record, please: T29G A36T
Reply: 0.826

Task item: Next record, please: G31T G55A
Reply: 0.813

Task item: Next record, please: T30G C33T
Reply: 0.867

Task item: Next record, please: T23A T43C
Reply: 0.783

Task item: Next record, please: T32C T43A
Reply: 0.779

Task item: Next record, please: A24T G34T
Reply: 0.76

Task item: Next record, please: T35A G46C
Reply: 0.799

Task item: Next record, please: A36T G38C
Reply: 0.833

Task item: Next record, please: C42G G50C
Reply: 0.27

Task item: Next record, please: T44G G55C
Reply: 0.729

Task item: Next record, please: C42G T44C
Reply: 0.851

Task item: Next record, please: A27G G31A
Reply: 0.776

Task item: Next record, please: G31T G38T
Reply: 0.801

Task item: Next record, please: T23G C40T
Reply: 0.864

Task item: Next record, please: G31T A37T
Reply: 0.815

Task item: Next record, please: A24T T49A
Reply: 0.8

Task item: Next record, please: T32A G47T
Reply: 0.104

Task item: Next record, please: T23C A39C
Reply: 0.788

Task item: Next record, please: A36C C42T
Reply: 0.889

Task item: Next record, please: C26G A57G
Reply: 0.576

Task item: Next record, please: G31A G55A
Reply: 0.823

Task item: Next record, please: C26A T32G
Reply: 0.499

Task item: Next record, please: T25G A48G
Reply: 0.291

Task item: Next record, please: G31A G34C
Reply: 0.769

Task item: Next record, please: T23G A24G
Reply: 0.091

Task item: Next record, please: C40A G50T
Reply: 0.488

Task item: Next record, please: A24T T29C
Reply: 0.6

Task item: Next record, please: A39C A57G
Reply: 0.786

Task item: Next record, please: T45A A57C
Reply: 0.773

Task item: Next record, please: G31A A57T
Reply: 0.796

Task item: Next record, please: A39T A48T
Reply: 0.541

Task item: Next record, please: C28A T30A
Reply: 0.8

Task item: Next record, please: A27C T45C
Reply: 0.335

Task item: Next record, please: G31T G38A
Reply: 0.802

Task item: Next record, please: C42A G50C
Reply: 0.239

Task item: Next record, please: A36G G50C
Reply: 0.117

Task item: Next record, please: G31A C40T
Reply: 0.831

Task item: Next record, please: A37C A39G
Reply: 0.833

Task item: Next record, please: C42G T44A
Reply: 0.851

Task item: Next record, please: A24T T32G
Reply: 0.372

Task item: Next record, please: T25A A56T
Reply: 0.0445

Task item: Next record, please: T32C A36T
Reply: 0.803

Task item: Next record, please: C40T T44G
Reply: 0.825

Task item: Next record, please: G46T G55C
Reply: 0.111

Task item: Next record, please: G34A T45C
Reply: 0.795

Task item: Next record, please: C28G G47C
Reply: 0.484

Task item: Next record, please: T29G A57T
Reply: 0.811

Task item: Next record, please: A48G A56G
Reply: 0.399

Task item: Next record, please: T49G A56G
Reply: 0.0888

Task item: Next record, please: T32G A41G
Reply: 0.754

Task item: Next record, please: T35G T43C
Reply: 0.807

Task item: Next record, please: C28G A37T
Reply: 0.808

Task item: Next record, please: A27T G31T
Reply: 0.862

Task item: Next record, please: T29A G31T
Reply: 0.845

Task item: Next record, please: A37G C42A
Reply: 0.859

Task item: Next record, please: C42A G47T
Reply: 0.704

Task item: Next record, please: A24T T30G
Reply: 0.768

Task item: Next record, please: C33A T45A
Reply: 0.803

Task item: Next record, please: T25C C40T
Reply: 0.819

Task item: Next record, please: A24G G55T
Reply: 0.629

Task item: Next record, please: A24C T25C
Reply: 0.793

Task item: Next record, please: C42T A57C
Reply: 0.812

Task item: Next record, please: C28A C42A
Reply: 0.803

Task item: Next record, please: C33T C42A
Reply: 0.842

Task item: Next record, please: A27C G46C
Reply: 0.782

Task item: Next record, please: C42A G55C
Reply: 0.746

Task item: Next record, please: T29A A56G
Reply: 0.789
